Hello, the source for this data is PubChem BioAssay, in case you need it.

The following compounds are shown together with reported z-score values.
assay: change in splice reporter luminescence, either direction, cell-based, HEK293, spliceosome inhibition project, primary screen (AID 1101); details: HEK293 splicing luciferase reporter, 24 h, higher = more signal, called active from +8 up or from −8 down;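 further: HEK293 cells carrying a splicing-competent luciferase reporter gene; test concentration not given here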
Respond using a number only.

                                   compound  test_result
0  COCC1C2CC[C@H]3C(OCc4ccc(F)cc4C(F)(F)F)OC[C@]4(C)[C@H]3C2=C(CN4C(=O)OC(C)(C)C)[C@H](C)C1COC (some centres undefined)       -0.625

Indicate the recorded z-score value for this compound: CN1C(=O)C2C=CC(C(O)c3ccccc3)N(NC(=O)OC(C)(C)C)C2C1=O (centres undefined)
1.54

Indicate the recorded z-score value for this compound: `O=C1C[C@@](C(=O)O)(c2ccc([N+](=O)[O-])cc2)[C@@H](c2ccc(CO)cc2I)N1CC12CC3CC(CC(C3)C1)C2`
-0.0388

Indicate the recorded z-score value for this compound: `C=CC[C@]1(C(=O)O)N=C(c2ccc(OCCCO)cc2)O[C@H]1c1ccccc1CN=[N+]=[N-]`
-0.611
